The values you see were collected from ChEMBL document CHEMBL1155531.

- Measurement Protocol: Elimination half life in DBA1 mouse at 1 mg/kg, po and 1 mg/kg, iv
- Assay type: ADME, organism-based
- Test Settings: in vivo, read-out: beta t1/2 (converted)
Observation Type: half-life (h)
Return type: number; implicit unit h.

Requested read-out: half-life. Entry: O=S(=O)(Cc1ccccc1)Nc1ccc(-c2ccc3c(cnn3-c3ccc(F)cc3)c2)c(C(F)(F)F)c1
4

###

- Measurement Protocol: Volume of distribution at steady state in DBA1 mouse at 1 mg/kg, po and 1 mg/kg, iv
- Assay type: ADME, organism-based
- Test Settings: in vivo, read-out: Vdss
Observation Type: Vd (L/kg)
Return type: number; implicit unit L/kg.

Requested read-out: Vd. Entry: O=S(=O)(Cc1ccccc1)Nc1ccc(-c2ccc3c(cnn3-c3ccc(F)cc3)c2)c(C(F)(F)F)c1
1.8

###

- Measurement Protocol: Tmax in DBA1 mouse at 1 mg/kg, po
- Type: ADME, organism-based
- Parameters: dose 1 mg/kg, route oral
- Test Settings: in vivo
Observation Type: Tmax (h)
Return type: number; implicit unit h.

Requested read-out: Tmax. Entry: O=S(=O)(Cc1ccccc1)Nc1ccc(-c2ccc3c(cnn3-c3ccc(F)cc3)c2)c(C(F)(F)F)c1
6

###

- Tested Target: Glucocorticoid receptor (Homo sapiens)
- Sequence (P04150 whole entry): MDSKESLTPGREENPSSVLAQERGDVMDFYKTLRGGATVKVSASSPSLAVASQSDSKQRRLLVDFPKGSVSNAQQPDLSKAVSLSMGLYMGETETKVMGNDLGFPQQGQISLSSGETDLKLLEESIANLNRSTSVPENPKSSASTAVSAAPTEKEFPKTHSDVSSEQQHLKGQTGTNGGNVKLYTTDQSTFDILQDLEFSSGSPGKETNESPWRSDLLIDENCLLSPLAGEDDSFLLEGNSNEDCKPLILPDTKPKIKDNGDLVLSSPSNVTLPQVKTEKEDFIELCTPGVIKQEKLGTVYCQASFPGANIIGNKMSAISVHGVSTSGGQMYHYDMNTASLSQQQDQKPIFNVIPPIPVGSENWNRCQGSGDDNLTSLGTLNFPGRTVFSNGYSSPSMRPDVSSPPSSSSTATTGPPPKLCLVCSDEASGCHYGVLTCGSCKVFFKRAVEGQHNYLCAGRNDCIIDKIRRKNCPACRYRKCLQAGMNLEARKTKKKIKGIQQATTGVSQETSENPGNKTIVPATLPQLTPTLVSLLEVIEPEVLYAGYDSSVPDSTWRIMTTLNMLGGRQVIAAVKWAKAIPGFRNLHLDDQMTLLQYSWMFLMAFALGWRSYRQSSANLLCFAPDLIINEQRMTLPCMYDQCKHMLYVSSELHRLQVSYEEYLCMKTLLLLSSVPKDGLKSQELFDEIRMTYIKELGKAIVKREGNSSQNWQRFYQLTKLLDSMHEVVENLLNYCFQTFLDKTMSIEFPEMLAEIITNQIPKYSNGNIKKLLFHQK
- Measurement Protocol: Displacement of fluorescent-labeled Dexamethasone from GR by fluorescent polarization assay
Observation Type: pIC50
Keep in mind that pIC50 stands for -log10 of concentration in molar terms.

Requested read-out: pIC50. Entry: CN(c1ccccc1)S(=O)(=O)c1ccc(-c2ccc3c(cnn3-c3ccc(F)cc3)c2)c(C(F)(F)F)c1
7.90

And then O=S(=O)(Nc1ccc(-c2ccc3c(cnn3-c3ccc(F)cc3)c2)c(C(F)(F)F)c1)c1cccc(OC(F)(F)F)c1 , what is it?
7.40

And then CC(C)S(=O)(=O)Nc1ccc(-c2ccc3c(cnn3-c3ccc(F)cc3)c2)c(C(F)(F)F)c1 , what is it?
7.90

And then O=S(=O)(Nc1ccc(-c2ccc3c(cnn3-c3ccc(F)cc3)c2)c(C(F)(F)F)c1)c1ccccc1 , what is it?
7.80

And then COc1cccc(S(=O)(=O)Nc2ccc(-c3ccc4c(cnn4-c4ccc(F)cc4)c3)c(C(F)(F)F)c2)c1 , what is it?
7.80

And then CCCNS(=O)(=O)c1ccc(-c2ccc3c(cnn3-c3ccc(F)cc3)c2)c(C(F)(F)F)c1 , what is it?
7.50

And then CCCN(c1ccccc1)S(=O)(=O)c1ccc(-c2ccc3c(cnn3-c3ccc(F)cc3)c2)c(C(F)(F)F)c1 , what is it?
7.80

###

- Measurement Protocol: Oral bioavailability in CD rat at 1 mg/kg
- Type: ADME, organism-based
- Test Settings: in vivo
Observation Type: bioavailability

Requested read-out: bioavailability. Entry: O=S(=O)(Cc1ccccc1)Nc1ccc(-c2ccc3c(cnn3-c3ccc(F)cc3)c2)c(C(F)(F)F)c1
> 22%

###

- Measurement Protocol: Oral bioavailability in DBA1 mouse at 1 mg/kg
- Format: ADME, organism-based
- Test Settings: in vivo
Observation Type: bioavailability

Requested read-out: bioavailability. Entry: O=S(=O)(Cc1ccccc1)Nc1ccc(-c2ccc3c(cnn3-c3ccc(F)cc3)c2)c(C(F)(F)F)c1
> 51%

###

- Tested Target: Glucocorticoid receptor (Homo sapiens, UniProt P04150)
- Measurement Protocol: Antagonist activity at GR in human A549 cells transfected with luciferase gene linked to MMTV promoter assessed as inhibition of dexamethasone-induced luciferase transactivation activity after 24 hrs
- Type: functional, cell-based
Assignment: determine reported pIC50 for the given compounds.
Keep in mind that pIC50 stands for -log10 of concentration in molar terms.

Requested read-out: pIC50. Entry: CCS(=O)(=O)Nc1ccc(-c2ccc3c(cnn3-c3ccc(F)cc3)c2)c(C(F)(F)F)c1
5.70

And then CCNS(=O)(=O)c1ccc(-c2ccc3c(cnn3-c3ccc(F)cc3)c2)c(C(F)(F)F)c1 , what is it?
5.70

And then CC(C)CNS(=O)(=O)c1ccc(-c2ccc3c(cnn3-c3ccc(F)cc3)c2)c(C(F)(F)F)c1 , what is it?
5.50

And then O=S(=O)(Nc1ccccc1)c1ccc(-c2ccc3c(cnn3-c3ccc(F)cc3)c2)c(C(F)(F)F)c1 , what is it?
5.50

And then CCCNS(=O)(=O)c1ccc(-c2ccc3c(cnn3-c3ccc(F)cc3)c2)c(C(F)(F)F)c1 , what is it?
5.50

And then O=S(=O)(Nc1ccc(-c2ccc3c(cnn3-c3ccc(F)cc3)c2)c(C(F)(F)F)c1)c1ccccc1 , what is it?
5.80

And then CC(C)(C)c1ccc(S(=O)(=O)Nc2ccc(-c3ccc4c(cnn4-c4ccc(F)cc4)c3)c(C(F)(F)F)c2)cc1 , what is it?
5.00

And then CS(=O)(=O)Nc1ccc(-c2ccc3c(cnn3-c3ccc(F)cc3)c2)c(C(F)(F)F)c1 , what is it?
5.80

And then CC(C)NS(=O)(=O)c1ccc(-c2ccc3c(cnn3-c3ccc(F)cc3)c2)c(C(F)(F)F)c1 , what is it?
5.90

And then O=S(=O)(NCCO)c1ccc(-c2ccc3c(cnn3-c3ccc(F)cc3)c2)c(C(F)(F)F)c1 , what is it?
5.70

And then CCCS(=O)(=O)Nc1ccc(-c2ccc3c(cnn3-c3ccc(F)cc3)c2)c(C(F)(F)F)c1 , what is it?
5.70

###

- Measurement Protocol: Plasma concentration in mouse bearing mouse NIH-3T3 cells integrated with MMTV reporter gene at 0.01 mg/kg, po after 1 hr
- Type: ADME, organism-based, NIH3T3
- Design: dose 0.01 mg/kg, route oral
Observation Type: concentration at 1 h (nM)
Return type: number; implicit unit nM.

Requested read-out: concentration at 1 h. Entry: C[C@@H]1C[C@H]2[C@@H]3CCC4=CC(=O)C=C[C@]4(C)[C@@]3(F)[C@@H](O)C[C@]2(C)[C@@]1(O)C(=O)CO [DEXAMETHASONE]
44

###

Assignment: determine reported pIC50 for the given compounds.
- Tested Target: Glucocorticoid receptor (Homo sapiens, UniProt P04150)
- Measurement Protocol: Displacement of fluorescent-labeled Dexamethasone from GR by fluorescent polarization assay
Keep in mind that pIC50 stands for -log10 of concentration in molar terms.

Requested read-out: pIC50. Entry: CCOc1cccc(-c2ccc3c(cnn3-c3ccc(F)cc3)c2)c1
5.60

And then CCCCN(c1ccccc1)S(=O)(=O)c1ccc(-c2ccc3c(cnn3-c3ccc(F)cc3)c2)c(C(F)(F)F)c1 , what is it?
7.60

And then CS(=O)(=O)Nc1ccc(-c2ccc3c(cnn3-c3ccc(F)cc3)c2)c(C(F)(F)F)c1 , what is it?
8.00

And then CC(C)NS(=O)(=O)c1ccc(-c2ccc3c(cnn3-c3ccc(F)cc3)c2)c(C(F)(F)F)c1 , what is it?
7.90

###

- Tested Target: Glucocorticoid receptor (Homo sapiens)
- Measurement Protocol: Displacement of fluorescent-labeled Dexamethasone from GR by fluorescent polarization assay
Observation Type: pIC50
Keep in mind that pIC50 stands for -log10 of concentration in molar terms.

Requested read-out: pIC50. Entry: Fc1ccc(-n2ncc3cc(-c4ccccc4)ccc32)cc1
5.50

And then Oc1ccc(-c2ccc3c(cnn3-c3ccc(F)cc3)c2)cc1 , what is it?
6.20

And then Cc1ccccc1-c1ccc2c(cnn2-c2ccc(F)cc2)c1 , what is it?
5.90
